# Assay target: T1, human PD-L1 recombinant protein (human, UniProt Q9NZQ7 19-238)
# T1 construct: also called recombinant PD-L1 protein; recombinant PD-L1
# T1 sequence (Q9NZQ7 19-238 limits assumed): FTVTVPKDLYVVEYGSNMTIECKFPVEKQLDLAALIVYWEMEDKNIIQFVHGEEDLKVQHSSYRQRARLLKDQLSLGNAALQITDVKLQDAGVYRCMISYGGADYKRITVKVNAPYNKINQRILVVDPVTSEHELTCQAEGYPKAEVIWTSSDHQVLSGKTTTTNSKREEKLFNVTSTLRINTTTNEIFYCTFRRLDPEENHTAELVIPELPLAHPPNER
# Procedure text: BLI, human PD-L1 recombinant protein
Assay readout: pKd
A value of pKd is the negative decimal logarithm of a concentration given in moles per litre.

// below: answered binders
{"columns": ["Binder", "pKd"],
 "data": [
  ["hzF2-m8 (VHH, also called humanized single variable domain antibody hzF2-m8) VHH: EVQLVESGGGLVQPGGSLRLSCAASRDSDDGASCMGWFRQAPGKEREGVAIIFNVGERTDYGDSVKGRFTISRDNAKNTLYLQMNSLRAEDTAVYYCATVWCGSWVARSWGQGTLVTVSS", 8.93],
  ["hzF2-m9 (VHH, also called humanized single variable domain antibody hzF2-m9) VHH: EVQLVESGGGLVQPGGSLRLSCAASRDSDEGASCMGWFRQAPGKEREGVAIIFNAGERTDYGDSVKGRFTISRDNAKNTLYLQMNSLRAEDTAVYYCATVWCGSWVARSWGQGTLVTVSS", 8.87],
  ["hzF2-m3 (VHH, The parent hzF2 is a VHH-human IgG1 Fc fusion; also called humanized single variable domain antibody hzF2-m3) VHH: EVQLVESGGGLVQPGGSLRLSCAASRDSSSGASCMGWFRQAPGKGLEGVAIIFNAGERTDYGDSVKGRFTISRDNAKNTLYLQMNSLRAEDTAVYYCATVWCGSWVARSWGQGTLVTVSS", 8.11],
  ["hzF2-m2 (VHH, The parent hzF2 is a VHH-human IgG1 Fc fusion; also called humanized single variable domain antibody hzF2-m2) VHH: EVQLVESGGGLVQPGGSLRLSCAASGDSDDGASCMGWFRQAPGKGLEGVAIIFNAGERTDYGDSVKGRFTISRDNAKNTLYLQMNSLRAEDTAVYYCATVWCGSWVARSWGQGTLVTVSS", 8.90],
  ["hzF2-m4 (VHH, The parent hzF2 is a VHH-human IgG1 Fc fusion; also called humanized single variable domain antibody hzF2-m4) VHH: EVQLVESGGGLVQPGGSLRLSCAASRDSNDGASCMGWFRQAPGKGLEGVAIIFNAGERTDYGDSVKGRFTISRDNAKNTLYLQMNSLRAEDTAVYYCATVWCGSWVARSWGQGTLVTVSS", 8.03],
  ["hzF2-m7 (VHH, The parent hzF2 is a VHH-human IgG1 Fc fusion; also called humanized single variable domain antibody hzF2-m7) VHH: EVQLVESGGGLVQPGGSLRLSCAASRDSDDSASCMGWFRQAPGKGLEGVAIIFNAGERTDYGDSVKGRFTISRDNAKNTLYLQMNSLRAEDTAVYYCATVWCGSWVARSWGQGTLVTVSS", 8.34]
]}

// below: pKd requested for another binder
Input line: Read off the recorded pKd for hzF2-m1 (VHH, The parent hzF2 is a VHH-human IgG1 Fc fusion; also called humanized single variable domain antibody hzF2-m1) VHH: EVQLVESGGGLVQPGGSLRLSCAASRDSDDGASSMGWFRQAPGKGLEGVAIIFNAGERTDYGDSVKGRFTISRDNAKNTLYLQMNSLRAEDTAVYYCATVWSGSWVARSWGQGTLVTVSS
Output line: 8.55
